These measurements were taken from the supplement of paper PMC4466140.

molecular target: ScHse1; experiment: SPOT peptide array binding signal intensity (averaged, normalized) (arbitrary units (background-subtracted, floor 0; scale differs between SH3 domains)); higher = stronger binding of the SH3 domain to the peptide
Field: SPOT peptide array binding signal intensity. Provide a value for each of the binders that follow.

Exercise: // query SPOT peptide array binding signal intensity value for entry LASNSPPVYPKRIRH
Solution: ≤ 0

Exercise: Recorded SPOT peptide array binding signal intensity of FYHRPAPKPPVTKKV , please.
Solution: ≤ 0

Exercise: Which SPOT peptide array binding signal intensity is reported for this binder? LYEAMPPTLPHRDWK
Solution: 15

Exercise: Look up SPOT peptide array binding signal intensity for this binder: NQARKPFLLPATELS
Solution: 1630

Exercise: SPOT peptide array binding signal intensity lookup needed for RSVKRPRRAPRPVVS , thanks.
Solution: 1150

Exercise: Find the recorded SPOT peptide array binding signal intensity belonging to NPTKSPPPPPSPSTM and report it.
Solution: 21.5

Exercise: What does the data say about its SPOT peptide array binding signal intensity? Entry: NTMKKRPAPPSLPSL
Solution: 1410

Exercise: Item PELAPKREAPKPPAN has what recorded SPOT peptide array binding signal intensity?
Solution: ≤ 0
